Test: xn = mol fraction of the nth substance listed
Conditions: 298.15 K; 101 kPa; x2 = 0.85
Observable: viscosity (mPa·s)
Record the value in mPa·s, omitting the unit from your answer.

Reference set, count: 3
molecule="CCCCCCCCO + CCO" observable=viscosity measurement=1.668
molecule="CCCCCCCCO + CCCCO" observable=viscosity measurement=3.067
molecule="CCCCCCCCO + CCCO" observable=viscosity measurement=2.526

Input CCCCCCCCO + CO , output reported viscosity.
1.089

====

viscosity values by entry
Assay: xn = mol fraction of the nth substance listed
Details: 308.15 K; 101 kPa; x2 = 0.95
± gives the uncertainty stated by the source.
Answer format reminder: number followed by unit.

compound="CCCCCCCCO + CO" measurement="0.6071 ± 0.0055 mPa·s"
compound="CCCCCCCCO + CCO" measurement="1.04 ± 0.0091 mPa·s"
compound="CCCCCCCCO + CCCCO" measurement="2.092 ± 0.019 mPa·s"

Read the next record carefully.
Input CCCCCCCCO + CCCO , output reported viscosity.
1.612 ± 0.014 mPa·s
